- SYSTEM_NAME: GlcNAc(b1-3)Man
- MEASUREMENT_DESCRIPTION: glycan array binding signal (z-score within array); higher = stronger binding
- PROTOCOL_CONDITIONS: glycan notation: IUPAC condensed, linker removed
The entries come from a sample that favours the strongest signals as a whole.
ASSAY_METRIC: glycan array binding signal (z-score)

binder="Tachylectin-2 (Tachypleus tridentatus), TAL2_TACTR (protein) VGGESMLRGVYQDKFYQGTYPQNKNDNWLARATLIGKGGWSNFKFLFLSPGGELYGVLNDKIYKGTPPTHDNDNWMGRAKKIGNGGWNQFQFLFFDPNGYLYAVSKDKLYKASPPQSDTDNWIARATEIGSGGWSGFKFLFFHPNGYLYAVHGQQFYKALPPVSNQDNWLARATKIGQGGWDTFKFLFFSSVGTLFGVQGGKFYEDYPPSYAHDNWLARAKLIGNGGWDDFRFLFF" quantitative_readout=-0.096
binder="LSECtin (Homo sapiens), Q6UXB4 (protein) MEQESALRELRERVTQGLAEAGRGREDVRTELFRALEAVRLQNNSCEPCPTSWLSFEGSCYFFSVPKTTWAAAQDHCADASAHLVIVGGLDEQGFLTRNTRGRGYWLGLRAVRHLGKVQGYQWVDGVSLSFSHWNQGEPNDAWGRENCVMMLHTGLWNDAPCDSEKDGWICEKKAQLLTPPSALEPRPLQHVVSWGLLTSLAPGADCQRVFSSSSTAAESQKHLAQHSPVQPSAWALGPPCRPHPNSTHADPT" quantitative_readout=0.057

Values were extracted from the supplement of paper PMC8728848.
